System: OVCAR-3
Assay protocol: NCI tumour cell line growth inhibition, 48 h
The source made the active and inactive calls. Cut-off read from the data, not from the text of the source: active = GI50 up to about 1.1 µM and inactive = higher.
Outcomes: active, inactive

>  <Compound>
COC(=O)c1cccc2cccc(C(=O)Nc3ccc(C)cc3C)c12

>  <Classification>
inactive

$$$$
>  <Compound>
N#Cc1ccc(/C=[N+](/C=c2ccc(=C=[N-])cc2)N(CCO)C2=NCCN2)cc1

>  <Classification>
inactive

$$$$
>  <Compound>
N[C@H]1CCC[C@@H](O)C1O (some centres not stated)

>  <Classification>
inactive

$$$$
>  <Compound>
COc1c(O)cc2oc(-c3ccc(O)cc3)cc(=O)c2c1O

>  <Classification>
inactive

$$$$
>  <Compound>
OC12CCCCCC1(N1CCOCC1)c1ccccc12 (configuration not stated)

>  <Classification>
inactive

$$$$
>  <Compound>
Cc1cccc(NC(=S)N/N=C(/c2ccccc2)c2ccccn2)c1

>  <Classification>
active

$$$$
>  <Compound>
CN(C=O)/C=C/c1cc(O)ccc1O

>  <Classification>
inactive

$$$$
>  <Compound>
C=CC1(NC(=O)c2ccccc2)CCC(C(C)(C)C)CC1 (configuration not stated)

>  <Classification>
inactive

$$$$
>  <Compound>
CC1(C)Oc2ccc(NC(=O)CCC(N)C(=O)O)cc2O1 (configuration not stated)

>  <Classification>
inactive

$$$$
>  <Compound>
c1ccc2cc3c(cc2c1)OP1(Oc2cccc4cccnc24)(O3)Oc2cc3ccccc3cc2O1

>  <Classification>
inactive

$$$$
>  <Compound>
CC(C)C(=O)Nc1nc2c(ncn2C2OC(CO)C(O)C2O)c(=O)[nH]1 (configuration not stated)

>  <Classification>
inactive

$$$$
>  <Compound>
CC(=O)OCC1=C(C)C[C@H]([C@@H](COC(C)=O)C2CCC3C4C[C@H]5O[C@]56CC=CC(=O)[C@]6(C)C4CC[C@@]32C)OC1=O (some centres not stated)

>  <Classification>
active

$$$$
>  <Compound>
CC(=N/NC(N)=S)/C(C)=N/NC(N)=S

>  <Classification>
inactive

$$$$
>  <Compound>
CCOC(=O)c1cc(-c2ccc(OC)cc2)c([N+](=O)[O-])[nH]1

>  <Classification>
inactive

$$$$
>  <Compound>
O=C(/C=C1/Nc2ccc([N+](=O)[O-])cc2NC1O)c1cccc([N+](=O)[O-])c1 (configuration not stated)

>  <Classification>
inactive

$$$$
>  <Compound>
C[C@H](N)C(=O)Nc1ccc(-c2nc3ccccc3s2)cc1Cl

>  <Classification>
active

$$$$
>  <Compound>
Cn1cc(-c2ccc(CCOC3CCCCO3)cc2)c2c(C#N)cccc21 (configuration not stated)

>  <Classification>
inactive

$$$$
>  <Compound>
CCOc1ccc(N2C(=O)/C(=C/c3ccc(N(CCC#N)CCC#N)cc3)N=C2c2cc([N+](=O)[O-])ccc2Cl)cc1

>  <Classification>
inactive

$$$$
>  <Compound>
CC1(C)C(=O)N(c2ccccc2)C(=O)N1c1nc2ccccc2[nH]1

>  <Classification>
inactive

$$$$
>  <Compound>
NC(=O)c1ccc2c(c1)S(=O)(=O)c1ccccc1C2=O

>  <Classification>
inactive

$$$$
>  <Compound>
C/C(=N/NC(=S)Nc1cccc(Cl)c1)c1cccc(/C(C)=N\NC(=S)Nc2cccc(Cl)c2)n1

>  <Classification>
active

$$$$
>  <Compound>
O=c1nc2ccc3sc4ccccc4c(=O)c3n2c(=O)[nH]1

>  <Classification>
inactive

$$$$
>  <Compound>
COC(=O)/C=C/c1cc(OC)c(OC)c(OC)c1

>  <Classification>
inactive

$$$$
>  <Compound>
CC(/C=N/N(C)C1=NCCCCN1)=N/N(C)C1=NCCCCN1

>  <Classification>
inactive

$$$$
>  <Compound>
O=c1c(F)cn2c(=O)n1CCCCCCCn1c(=O)c(F)cn(c1=O)CCCCCCC2

>  <Classification>
inactive

$$$$
>  <Compound>
CCOC(=O)C1(C(N)=O)C(=O)c2ccncc2C1=O (configuration not stated)

>  <Classification>
inactive

$$$$
>  <Compound>
CC(C)(C)OC(=O)N(CCCCNC(=O)c1ccccc1)CCCNC(=O)c1ccccc1

>  <Classification>
inactive

$$$$
>  <Compound>
O=C(Oc1cccc(Cl)c1)c1cc2cc(CCl)ccc2oc1=O

>  <Classification>
inactive

$$$$
>  <Compound>
Cc1ccc2nc(-n3c(/C=C/c4ccccc4O)nc4ccccc4c3=O)sc2c1

>  <Classification>
inactive

$$$$
>  <Compound>
CN(CCNC(=O)c1nn(-c2ccccc2)c2c1ccc1ccccc12)CCNC(=O)c1nn(-c2ccccc2)c2c1ccc1ccccc12

>  <Classification>
inactive

$$$$
>  <Compound>
COc1cccc2c(NNc3ccccc3)c3ccc([N+](=O)[O-])cc3nc12

>  <Classification>
inactive

$$$$
>  <Compound>
COc1cc2c(cc1O)C(c1cc(O)c(O)c(OC)c1)C(O)(C(=O)O)C(CO)C2O (configuration not stated)

>  <Classification>
inactive

$$$$
>  <Compound>
COC1(OC)C(/C(N)=C\O)=NC(C)(C)N1O

>  <Classification>
inactive

$$$$
>  <Compound>
COC(=O)/C=C1/OC(c2ccc(C)cc2)=C(Cl)C1=O

>  <Classification>
inactive

$$$$
>  <Compound>
N/N=C(/CC(O)(C(F)(F)F)C(F)(F)F)c1ccccc1

>  <Classification>
inactive

$$$$
>  <Compound>
N#CCCCCCOCCOCCOCCOCCOCCCCCC#N

>  <Classification>
inactive

$$$$
>  <Compound>
O=S(=O)(O)c1ccc(/N=N\c2c(O)ccc3cc(Br)ccc23)cc1

>  <Classification>
inactive

$$$$
